Origin of measurements: patent US20160263155A1

test system: chimeric Caspase-9 polypeptide; assay: Caspase mutant classes and basal activity (Table 3); type: cell-based, human; details: class heading of Table 3
Sequence (as listed by the source, change not shown): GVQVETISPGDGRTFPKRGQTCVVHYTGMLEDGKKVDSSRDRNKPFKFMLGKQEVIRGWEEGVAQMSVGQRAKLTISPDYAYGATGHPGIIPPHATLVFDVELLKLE

- MOLECULE: "F406A (protein) GFGDVGALESLRGNADLAYILSMEPCGHCLIINNVNFCRESGLRTRTGSNIDCEKLRRRFSSLHFMVEVKGDLTAKKMVLALLELAQQDHGALDCCVVVILSHGCQASHLQFPGAVYGTDGCPVSVEKIVNIFNGTSCPSLGGKPKLFFIQACGGEQKDHGFEVASTSPEDESPGSNPEPDATPFQEGLRTFDQLDAISSLPTPSDIFVSYSTFPGFVSWRDPKSGSWYVETLDDIFEQWAHSEDLQSLLLRVANAVSVKGIYKQMPGCFNALRKKLFFKTS"
  Basal Activity: "Decreased"
- MOLECULE: "F404W (protein) GFGDVGALESLRGNADLAYILSMEPCGHCLIINNVNFCRESGLRTRTGSNIDCEKLRRRFSSLHFMVEVKGDLTAKKMVLALLELAQQDHGALDCCVVVILSHGCQASHLQFPGAVYGTDGCPVSVEKIVNIFNGTSCPSLGGKPKLFFIQACGGEQKDHGFEVASTSPEDESPGSNPEPDATPFQEGLRTFDQLDAISSLPTPSDIFVSYSTFPGFVSWRDPKSGSWYVETLDDIFEQWAHSEDLQSLLLRVANAVSVKGIYKQMPGCWNFLRKKLFFKTS"
  Basal Activity: "Decreased"
